Target: T1, GST-human NOGO-A56 (human, UniProt Q9NQC3 586-785)
T1 construct: also called hNOGO; recombinant human NOGO; not shown: Glutathione S-transferase (GST) tag encoded by vector pGEX-6P1, N-terminal to the NOGO-A fragment; the tag and linker se
T1 sequence: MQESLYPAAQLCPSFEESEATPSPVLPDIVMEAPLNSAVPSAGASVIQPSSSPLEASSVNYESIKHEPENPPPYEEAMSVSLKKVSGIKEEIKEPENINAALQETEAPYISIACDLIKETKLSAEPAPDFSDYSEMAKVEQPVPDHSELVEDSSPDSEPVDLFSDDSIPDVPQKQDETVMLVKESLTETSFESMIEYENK
Assay: SPR (Biacore 3000), GST-human NOGO-A56 amine-coupled to CM5 chip, antibody as analyte; mean (SD) of four experiments
readout: Kd (nM)

{"binder": "H6L13 (antibody, human IgG1, kappa, V domains shown, Humanised 2A10; human gamma-1 mutated constant region, human kappa; also called H6L13 FL) VH: QVQLVQSGAEVKKPGASVKVSCKASGYTFTSYWMHWVRQAPGQGLEWIGNINPSNGGTNYNEKFKSRATMTRDTSTSTAYMELSSLRSEDTAVYYCELGQGYWGQGTLVTVSS VL: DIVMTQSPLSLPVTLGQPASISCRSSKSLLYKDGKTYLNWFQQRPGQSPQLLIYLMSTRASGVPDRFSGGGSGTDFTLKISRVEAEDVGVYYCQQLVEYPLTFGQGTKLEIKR", "measurement": 7.68}
{"binder": "H16L18 (antibody, human IgG1, kappa, V domains shown, Humanised 2A10; human gamma-1 mutated constant region, human kappa; also called H16L18 FL) VH: QVQLVQSGAEVKKPGASVKVSCKASGYTFTSYWMHWVKQRPGQGLEWIGNINPSNGGTNYNEKFKSKATLTVDKSTSTAYMELSSLRSEDTAVYYCELGQGYWGQGTLVTVSS VL: DIVMTQDPLSNPVTLGQPVSISCRSSKSLLYKDGKTYLNWFLQRPGQSPQLLIYLMSTRASGVSDRFSGSGSGTDFTLKISRVEAEDVGVYYCQQLVEYPLTFGQGTKLEIKR", "measurement": 1.33}
{"binder": "H18L16 (antibody, human IgG1, kappa, V domains shown, Humanised 2A10; human gamma-1 mutated constant region, human kappa; also called H18L16 FL) VH: QVQLVQSGAEVVKPGASVKLSCKASGYTFTSYWMHWVKQRPGQGLEWIGNINPSNGGTNYNEKFKSKATLTVDKSSSTAYMELSSLRSEDSAVYYCELGQGYWGQGTLVTVSS VL: DIVMTQSPLSNPVTLGQPVSISCRSSKSLLYKDGKTYLNWFLQRPGQSPQLLIYLMSTRASGVPDRFSGGGSGTDFTLKISRVEAEDVGVYYCQQLVEYPLTFGQGTKLEIKR", "measurement": 1.62}
{"binder": "HcLc (chimera of 2A10: murine 2A10 VH and VL with human IgG constant regions) (antibody, V domains shown, also called 2A10 chimeric antibody; the chimera) VH: QVQLQQPGTELVKPGASVKLSCKASGYTFTSYWMHWVKQRPGQGLEWIGNINPSNGGTNYNEKFKSKATLTVDKSSSTAYMQLSSLTSEDSAVYYCELGQGYWGQGTLVTVSS VL: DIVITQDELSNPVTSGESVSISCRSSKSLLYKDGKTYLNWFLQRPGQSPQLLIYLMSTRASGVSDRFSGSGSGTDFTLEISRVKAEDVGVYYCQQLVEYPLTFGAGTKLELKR", "measurement": 1.41}
